Source listed as ChEMBL document CHEMBL3352099.

experiment: Antioxidant activity assessed as AAPH-induced peroxyl radical scavenging activity by oxygen radical absorbance assay; type: physicochemical
endpoint.label: Activity

Example compounds with recorded Activity:
COc1cc([C@H]2OC[C@H]3[C@@H]2CO[C@@H]3c2cc(OC)c(OC)c(OC)c2)cc(OC)c1O = Dose-dependent effect
O=c1c(-c2ccc(O)cc2)coc2cc(O[C@@H]3O[C@H](CO)[C@@H](O)[C@H](O)[C@H]3O)ccc12 = Dose-dependent effect
O=C(c1ccc(O)cc1O[C@@H]1O[C@H](CO)[C@@H](O)[C@H](O)[C@H]1O)[C@H](O)Cc1ccc(O)cc1 = Dose-dependent effect
COC(=O)/C=C\c1ccc(O)c(CC=C(C)C)c1 = Dose-dependent effect
COc1cc([C@H]2OC[C@H]3[C@@H]2CO[C@@H]3c2ccc(O[C@@H]3O[C@H](CO)[C@@H](O)[C@H](O)[C@H]3O)c(OC)c2)ccc1O = Dose-dependent effect

Using the record for `O=c1c(-c2ccc(O)cc2)coc2cc(O[C@@H]3O[C@H](CO)[C@@H](O)[C@H](O)[C@H]3O)cc(O)c12` , report its Activity.
Dose-dependent effect

Using the record for `COc1cc([C@H]2OC[C@H]3[C@@H]2CO[C@@H]3c2cc(OC)c(O[C@@H]3O[C@H](CO)[C@@H](O)[C@H](O)[C@H]3O)c(OC)c2)cc(OC)c1O[C@@H]1O[C@H](CO)[C@@H](O)[C@H](O)[C@H]1O` , report its Activity.
Dose-dependent effect

Using the record for `COc1cc(/C=C/CO)ccc1O[C@@H]1O[C@H](CO)[C@@H](O)[C@H](O)[C@H]1O` , report its Activity.
Dose-dependent effect

Using the record for `CC(C)=CCc1c(O)ccc(C(=O)/C=C/c2ccc(O)cc2)c1O` , report its Activity.
Dose-dependent effect

Using the record for `O=c1oc2cc(O)ccc2c2oc3cc(O)ccc3c12` , report its Activity.
Dose-dependent effect

Using the record for `O=c1c(-c2ccc(O[C@@H]3O[C@H](CO)[C@@H](O)[C@H](O)[C@H]3O)cc2)coc2cc(O)ccc12` , report its Activity.
Dose-dependent effect

Using the record for `OC[C@H]1O[C@@H](Oc2ccc3c(c2)OC[C@@]2(O)c4ccc(O)cc4O[C@@H]32)[C@H](O)[C@@H](O)[C@@H]1O` , report its Activity.
Dose-dependent effect

Using the record for `CC1=CC(=O)CC(C)(C)[C@H]1CC[C@@H](C)O[C@@H]1O[C@H](CO)[C@@H](O)[C@H](O)[C@H]1O` , report its Activity.
Dose-dependent effect

Using the record for `C=CCc1ccc(O[C@@H]2O[C@H](CO)[C@@H](O)[C@H](O)[C@H]2O)c(OC)c1` , report its Activity.
Dose-dependent effect

Using the record for `COc1cc(O)c2c(=O)c(-c3ccc(O[C@@H]4O[C@H](CO)[C@@H](O)[C@H](O)[C@H]4O)cc3)coc2c1` , report its Activity.
Dose-dependent effect

----------
Hi there, I'd appreciate the recorded Ratio for every entry that follows.
test: Antioxidant activity assessed as AAPH-induced peroxyl radical scavenging activity at 10 uM by oxygen radical absorbance assay relative to trolox; format: physicochemical

Using the record for `OC[C@H]1O[C@@H](Oc2ccc3c(c2)OC[C@@]2(O)c4ccc(O)cc4O[C@@H]32)[C@H](O)[C@@H](O)[C@@H]1O` , report its Ratio.
> 20

Using the record for `O=c1c(-c2ccc(O)cc2)coc2cc(O[C@@H]3O[C@H](CO)[C@@H](O)[C@H](O)[C@H]3O)cc(O)c12` , report its Ratio.
26.55

Using the record for `O=c1c(-c2ccc(O)cc2)coc2cc(O[C@@H]3O[C@H](CO)[C@@H](O)[C@H](O)[C@H]3O)ccc12` , report its Ratio.
> 20

Using the record for `CC(C)=CCc1c(O)ccc(C(=O)/C=C/c2ccc(O)cc2)c1O` , report its Ratio.
> 20

Using the record for `O=c1c(-c2ccc(O[C@@H]3O[C@H](CO)[C@@H](O)[C@H](O)[C@H]3O)cc2)coc2cc(O)ccc12` , report its Ratio.
> 20
